assay_explanation: Plasma clearance in Male Sprague-Dawley Rat (8.98 mg/kg iv)
Type: ADME, organism-based
measure: clearance (mL/min/kg)
State just the number; it will be interpreted in mL/min/kg.

# input Fill in: clearance of CC(=O)NC[C@H]1CC(c2ccc(N3CCOCC3)c(F)c2)=NO1 is ___
# output 12.4

----------
assay_explanation: Volume distribution in Male Sprague-Dawley Rat (8.98 mg/kg iv)
Assay type: ADME, organism-based
protocol_conditions: in vivo, read-out: Vss
measure: Vd (L/kg)
State just the number; it will be interpreted in L/kg.

# input Fill in: Vd of CC(=O)NC[C@H]1CC(c2ccc(N3CCOCC3)c(F)c2)=NO1 is ___
# output 0.6

----------
experimental_target: CYP2C9 (Homo sapiens)
Sequence (P11712 whole entry): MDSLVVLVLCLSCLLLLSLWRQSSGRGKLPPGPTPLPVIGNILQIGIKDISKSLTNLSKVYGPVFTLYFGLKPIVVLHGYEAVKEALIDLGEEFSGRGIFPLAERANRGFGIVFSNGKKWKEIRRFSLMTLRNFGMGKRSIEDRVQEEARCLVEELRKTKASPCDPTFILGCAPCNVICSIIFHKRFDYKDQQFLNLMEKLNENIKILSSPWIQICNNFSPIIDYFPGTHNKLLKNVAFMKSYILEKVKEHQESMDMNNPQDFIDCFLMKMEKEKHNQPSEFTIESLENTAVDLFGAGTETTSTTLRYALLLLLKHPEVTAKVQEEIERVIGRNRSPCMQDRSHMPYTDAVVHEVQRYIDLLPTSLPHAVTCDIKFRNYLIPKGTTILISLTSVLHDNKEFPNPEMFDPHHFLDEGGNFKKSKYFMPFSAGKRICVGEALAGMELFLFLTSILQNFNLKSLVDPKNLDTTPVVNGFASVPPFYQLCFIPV
assay_explanation: Inhibition of heterologously expressed human Cytochrome P450 2C9 at 10 uM
Format: ADME
Parameters: scale not given: the % may be the effect or the level left
protocol_conditions: read-out: Control of P-450 marker
measure: activity at 10 µM
Write the numeric value and append its unit.

# input Fill in: activity at 10 µM of CC(=O)NC[C@H]1CC(c2ccc(N3CCOCC3)c(F)c2)=NO1 is ___
# output 92.1%

----------
experimental_target: CYP3A4 (Homo sapiens, UniProt P08684)
Sequence (P08684 whole entry): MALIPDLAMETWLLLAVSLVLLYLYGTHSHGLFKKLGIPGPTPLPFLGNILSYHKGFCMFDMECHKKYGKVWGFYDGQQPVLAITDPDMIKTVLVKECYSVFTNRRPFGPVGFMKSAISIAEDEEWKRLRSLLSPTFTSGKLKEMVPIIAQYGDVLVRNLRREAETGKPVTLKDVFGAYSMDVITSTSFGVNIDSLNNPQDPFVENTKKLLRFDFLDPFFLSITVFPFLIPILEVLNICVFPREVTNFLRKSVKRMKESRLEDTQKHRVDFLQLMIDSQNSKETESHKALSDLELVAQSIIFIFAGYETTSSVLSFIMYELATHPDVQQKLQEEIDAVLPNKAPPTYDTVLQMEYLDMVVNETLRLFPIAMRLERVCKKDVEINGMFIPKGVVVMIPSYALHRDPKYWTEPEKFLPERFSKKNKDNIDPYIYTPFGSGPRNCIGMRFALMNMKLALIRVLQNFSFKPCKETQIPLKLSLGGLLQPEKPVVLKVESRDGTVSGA
assay_explanation: Inhibition of heterologously expressed human Cytochrome P450 3A4 at 100 uM
Assay type: ADME
Design: scale not given: the % may be the effect or the level left
protocol_conditions: read-out: Control of P-450 marker
measure: activity at 100 µM (%)
State just the number; it will be interpreted in %.

# input Fill in: activity at 100 µM of CC(=O)NC[C@H]1CC(c2ccc(N3CCOCC3)c(F)c2)=NO1 is ___
# output 92.1

----------
Test system: Staphylococcus epidermidis
assay_explanation: In vitro minimum inhibitory concentration (MIC) against Staphylococcus epidermidis UC12084
Type: functional
Field: MIC. Provide a value for each of the compounds that follow.
State just the number; it will be interpreted in µg/mL.

# input Fill in: MIC of CC(=O)NC[C@H]1CC(c2ccc(-n3cccc3)c(F)c2)=NO1 is ___
# output 0.5

# input Fill in: MIC of CC(=O)NC[C@H]1CC(c2ccc(N3CCOCC3)c(F)c2)=NO1 is ___
# output 2

# input Fill in: MIC of COc1ccc(-c2ccc(C3=NOC(CNC(C)=O)C3)cc2)ccc1=O (stereo not given) is ___
# output 2

# input Fill in: MIC of CC(=O)NCC1CC(c2ccc(N3CCN(C(=O)CO)CC3)c(F)c2)=NO1 (racemic) is ___
# output 4

----------
assay_explanation: Plasma clearance in Male Sprague-Dawley Rat (10.1 mg/kg iv)
Assay type: ADME, organism-based
measure: clearance (mL/min/kg)
State just the number; it will be interpreted in mL/min/kg.

# input Fill in: clearance of CC(=O)NC[C@H]1CC(c2ccc(N3CCN(C(=O)CO)CC3)c(F)c2)=NO1 is ___
# output 26.2

----------
Field: MIC. Provide a value for each of the molecules that follow.
Test system: Haemophilus influenzae
assay_explanation: In vitro minimum inhibitory concentration (MIC) against Haemophilus influenzae UC30063
Type: functional
State just the number; it will be interpreted in µg/mL.

# input Form field: MIC recorded for CC(=O)NC[C@H]1CC(c2cc(F)c(N3CCNCC3)c(F)c2)=NO1 with Haemophilus influenzae (enter value)
# output 8

# input Form field: MIC recorded for CC(=O)NC[C@H]1CC(c2ccc(-n3cc(C#N)cn3)c(F)c2)=NO1 with Haemophilus influenzae (enter value)
# output 16
